All values here come from the supplement of paper PMC12042874.

- Experiment Summary: amyloid nucleation score (Sup35N fusion, yeast selection) (log enrichment); library NNK1; higher = more nucleation; inactive = no reads after selection;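 also: zero at mode of non-aggregating sequences after 7 days selection at 30°C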
Experimental Readout: amyloid nucleation score
Numbers only.

Batch request: amyloid nucleation score for each of the following substances.
1. ILKALF
2. VYLWGPKVYRSDWMGRHFK
3. MCGRSGTFSAILRDREGLNI
4. AGSGMLSKLVLLSRKSMVIT

1. 1.53
2. 0.855
3. 0.219
4. 1.92

---

- Experiment Summary: amyloid nucleation score (Sup35N fusion, yeast selection) (log enrichment); library NNK3; higher = more nucleation; inactive = no reads after selection
Experimental Readout: amyloid nucleation score

Worked cases, answers included:
LCITPNLKSFFESYVRFSEL: inactive
SVVYRKDSIKQRKEFSSHAF: inactive
LFYSRGHLSGLGLGVMAPFI: inactive
FDDPHGTVTCED: -0.176
YEDAAILDVCDPQIELLLHQ: inactive
LSMSAVL: inactive
TYFTFSTWLRMYSGYSLVQV: inactive
SLWMFCYSDSYRCKDNFLRN: inactive
DMDDHPDYHRNTND: inactive
MAEPTL: inactive

Batch request: amyloid nucleation score for each of the following substances.
1. SASEKTDSNVVEFCVGRCI
2. RKARRGCYVFLPKFSNVEFH
3. FCYVSCLS
4. RTSYVNLLYIMLDLLIRFRS

inactive
1.03
inactive
inactive

Batch request: amyloid nucleation score for each of the following substances.
1. VFFVQCNHWNGMVNVFAM
2. TTSEAIMLGCSISTYNQSGN
3. SILMTVYDGYHKRSKNIAQC
4. GQVLNCVRNRIRIAVKRRGG
5. RSHRIF
6. GCGSYSDQGRCSTSVSVC
7. CSCQRPKAFQVQWNGG
8. SLMSGWN

1. 2.9
2. inactive
3. inactive
4. inactive
5. inactive
6. inactive
7. 0.789
8. inactive

Batch request: amyloid nucleation score for each of the following substances.
1. FLGCNRV
2. TRMGFYKAWYTAYVWRHALL
3. GRHNKCMVDLVEDFQLASIW
4. TQLIIAGFVPNYVVLPWSAH
5. MICRSSGFLYGCSWFGILYL
6. FIGDVLGSINGKCHLEYLYF
7. CLTVHTVNIIGMNFIVNVAL

1: inactive; 2: inactive; 3: inactive; 4: 1.38; 5: inactive; 6: inactive; 7: 2.72

Batch request: amyloid nucleation score for each of the following substances.
1. SNWKGEISIHEGMLGCT
2. TSSFVKSFRCYSAIG
3. AYCGACFNLSAYTSKCLELM
4. YFYIPGH
5. KYNHIYVYKSIRCVQGVLDG
6. KLLSTRRCFRCLLGQWSLFM
7. CNNNLGVVFPRFWSIFAKGC
8. FRSTGRKQELLLHSRKKQLP

1. inactive
2. inactive
3. inactive
4. inactive
5. inactive
6. 1.17
7. inactive
8. inactive

---

- Experiment Summary: amyloid nucleation score (Sup35N fusion, yeast selection) (log enrichment); library NNK3; higher = more nucleation; inactive = no reads after selection
Experimental Readout: amyloid nucleation score

Worked cases, answers included:
YPLDTVGFWEESKLFVGRGG: inactive
VDGSVNMRALKCINNCVL: inactive
PNHYWFVAQFWLFSLTACHR: 0.02
QTLNERTWTGYDIHVRHVRR: inactive

Batch request: amyloid nucleation score for each of the following substances.
1. SFSRCLNSLEVRNKNSWWVG
2. GVCGVLGFYFDPIITSL
3. RLKNHSGCIILNRCVSRGRI
4. FVVFCRNPNSGLGNCTVSCD
5. TRDRCLRFKLVPVYFVWTCG
6. GIFEFKLNSLNSNERGLRAG
7. NNLTEEEMDLAPTVSHYLYK
8. ALCCVRPFGNEDKREVMYSN

[-0.181, "inactive", "inactive", "inactive", "inactive", "inactive", "inactive", 0.604]

Batch request: amyloid nucleation score for each of the following substances.
1. DSVNRCFARGILSCLVCL
2. VEGATWHTWSCVNHVVVKGF
3. TGCGQFH
4. WDNLCGTAFHAVN

inactive
inactive
inactive
inactive

Would you mind telling me what amyloid nucleation score value was observed for SGITIEF ?
inactive
